- System: crabgrass (Digitaria sanquinalis L.)
- protocol: Test Example 1: foliar treatment, growth inhibition rate on 14th day
- Type: in vivo
- recorded_conditions: active ingredient amount 500 g/ha, 14th day after application
measured_quantity: Growth inhibition rate (%) Crabgrass
Answer shape: numeric part, then the unit.

CC(=O)Oc1c(C)nn(C)c(=O)c1-c1cc(Oc2cnc3ccccc3c2)ccc1C [Compound 2-146] | 95%
Cc1ccc(Oc2ccc3ccccc3n2)cc1-c1c(O)c(C)nn(C)c1=O [Compound 2-108] | 85%
Cc1ccc(Oc2cnc3ccccc3c2)cc1-c1c(O)c(C)nn(C)c1=O [Compound 2-112] | 98%

Consider the compound shown here: CC(=O)Oc1c(C)nn(C)c(=O)c1-c1cc(Oc2ccc3ccccc3n2)ccc1C [Compound 2-142] What is its recorded Growth inhibition rate (%) Crabgrass?
83%

* * *

- Tested on: soybean (Glycine max Merr.)
- protocol: Test Example 1: foliar treatment, growth inhibition rate on 14th day
- Format: in vivo
- recorded_conditions: active ingredient amount 31 g/ha, 14th day after application
Growth inhibition rate (%) Soybean for assorted compounds
The response must be a number in % with no trailing unit.

Please state recorded Growth inhibition rate (%) Soybean (tested on soybean (Glycine max Merr.)) of CC(=O)Oc1cnn(C)c(=O)c1-c1cc(Oc2nc3ccc(Cl)cc3o2)ccc1C [Compound 2-164]
40

Please state recorded Growth inhibition rate (%) Soybean (tested on soybean (Glycine max Merr.)) of CCc1ccc(Oc2nc3ccc(Cl)cc3o2)cc1-c1c(OC(C)=O)cnn(C)c1=O [Compound 2-160]
30

Please state recorded Growth inhibition rate (%) Soybean (tested on soybean (Glycine max Merr.)) of CCc1ccc(Oc2nc3ccc(Cl)cc3o2)cc1-c1c(OC(C)=O)c(C)nn(C)c1=O [Compound 2-159]
35

Please state recorded Growth inhibition rate (%) Soybean (tested on soybean (Glycine max Merr.)) of Cc1ccc(Oc2nc3ccc(Cl)cc3o2)cc1-c1c(O)cnn(C(C)C)c1=O [Compound 2-171]
30

Please state recorded Growth inhibition rate (%) Soybean (tested on soybean (Glycine max Merr.)) of CCc1ccc(Oc2ncc(C(F)(F)F)cc2Cl)cc1-c1c(O)cnn(CC)c1=O [1-173]
0

Please state recorded Growth inhibition rate (%) Soybean (tested on soybean (Glycine max Merr.)) of COc1ccc2nc(Oc3ccc(C)c(-c4c(OC(C)=O)c(C)nn(C)c4=O)c3)sc2c1 [Compound 2-154]
10

* * *

Growth inhibition rate (%) Corn for assorted molecules
- Tested on: corn (Zea mays L.)
- protocol: Test Example 1: foliar treatment, growth inhibition rate on 14th day
- Type: in vivo
- recorded_conditions: active ingredient amount 31 g/ha, 14th day after application
- Experimental: Upland field soil was put into a 1/300,000 hectare pot, and seeds of various plants were sown. […] On the 14th day after the application, the state of growth of the respective plants was visually observed, and the herbicidal effect was evaluated by a growth inhibition rate (%) of 0 (equivalent to the non-treated area) to 100 (complete kill).
The response must be a number in % with no trailing unit.

Known results for molecules:
CCc1ccc(Sc2ncc(C(F)(F)F)cc2Cl)cc1-c1c(OC(C)=O)c(C)nn(C)c1=O [1-46] | 98
CC(=O)Oc1cnn(C)c(=O)c1-c1cc(Oc2nc3cc(Cl)ccc3o2)ccc1C [Compound 2-174] | 95
Cc1ccc(Oc2cnc3cc(Cl)ccc3n2)cc1-c1c(OC(=O)N2CCOCC2)c(C)nn(C)c1=O [Compound 3-39] | 15
COCOc1c(C)nn(C)c(=O)c1-c1cc(Oc2cnc3cc(Cl)ccc3n2)ccc1C [Compound 3-40] | 25
Cc1ccc(Oc2ncc(C(F)(F)F)cc2Cl)cc1-c1c(OC(C)OC(=O)OC(C)C)c(C)nn(C)c1=O (centres unmarked) [1-133] | 0

Consider the molecule shown here: Cc1ccc(Oc2ccc(C(F)(F)F)cn2)cc1-c1c(O)c(C)nn(C)c1=O [Compound 2-3] What is its recorded Growth inhibition rate (%) Corn?
10

Consider the molecule shown here: Cc1ccc(Oc2cnc3cc(Cl)ccc3n2)cc1-c1c(O)c(C)nn(C)c1=O [Compound 2-7] What is its recorded Growth inhibition rate (%) Corn?
10

Consider the molecule shown here: CCCCC(=O)Oc1c(C)nn(C)c(=O)c1-c1cc(Oc2cnc3cc(Cl)ccc3n2)ccc1C [Compound 3-36] What is its recorded Growth inhibition rate (%) Corn?
40

* * *

- Tested on: corn (Zea mays L.)
- protocol: Test Example 1: foliar treatment, growth inhibition rate on 14th day
- Assay type: in vivo
- recorded_conditions: active ingredient amount 31 g/ha, 14th day after application
measured_quantity: Growth inhibition rate (%) Corn
The response must be a number in % with no trailing unit.

CCc1nn(C)c(=O)c(-c2cc(Oc3cnc4cc(Cl)ccc4n3)ccc2C)c1O | 15
Cc1ccc(Oc2ncc(C(F)(F)F)cc2C(F)(F)F)cc1-c1c(O)c(C)nn(C)c1=O | 90
CC(=O)Oc1c(C)nn(C)c(=O)c1-c1cc(Oc2ncc(C(F)(F)F)cc2Cl)c(C)cc1C | 90
Cc1ccc(Oc2ncc(Cl)cc2C(F)(F)F)cc1-c1c(O)c(C)nn(C)c1=O | 80
Cc1ccc(Oc2ccc3nc(Cl)cn3n2)cc1-c1c(O)c(C)nn(C)c1=O | 65

Please state recorded Growth inhibition rate (%) Corn (tested on corn (Zea mays L.)) of "CC(=O)Oc1c(C)nn(C)c(=O)c1-c1cc(Oc2ccc3cc(Br)ccc3n2)ccc1C"
0

* * *

- Tested on: corn (Zea mays L.)
- protocol: Test Example 1: foliar treatment, growth inhibition rate on 14th day
- Assay type: in vivo
- recorded_conditions: active ingredient amount 31 g/ha, 14th day after application
Hi, to clarify the labels: TRUE covers Growth inhibition rate (%) Corn from 90% upward, FALSE covers anything below 90%.

Please review the following examples before continuing.
CC(=O)Oc1c(C)nn(C)c(=O)c1-c1cc(N(C)c2ncc(C(F)(F)F)cc2Cl)ccc1C | FALSE
Cc1ccc(Oc2ncc(C#N)cc2Cl)cc1-c1c(O)c(C)nn(C)c1=O | FALSE
CC(=O)Oc1c(C)nn(C)c(=O)c1-c1cc(Oc2ccc(C(F)(F)F)cn2)ccc1C | TRUE

Would you say COC(=O)OC(C)Oc1c(C)nn(C)c(=O)c1-c1cc(Oc2cnc3cc(Cl)ccc3n2)ccc1C (stereo not shown) shows Growth inhibition rate (%) Corn at minimum 90%?
FALSE

Would you say "CC(=O)Oc1c(C)nn(C)c(=O)c1-c1cc(Oc2nccc(C(F)(F)F)c2Cl)ccc1C" shows Growth inhibition rate (%) Corn at minimum 90%?
FALSE

Would you say "CCc1nn(C)c(=O)c(-c2cc(Oc3nc4ccc(Cl)cc4o3)ccc2C)c1OC(C)=O" shows Growth inhibition rate (%) Corn at minimum 90%?
FALSE

Would you say "Cc1ccc(Sc2ncc(C(F)(F)F)cc2Cl)cc1-c1c(O)c(C)nn(C)c1=O" shows Growth inhibition rate (%) Corn at minimum 90%?
TRUE

Would you say "CC(=O)Oc1c(C(F)(F)F)nn(C)c(=O)c1-c1cc(Oc2ncc(C(F)(F)F)cc2Cl)ccc1C" shows Growth inhibition rate (%) Corn at minimum 90%?
FALSE

* * *

- System: rice (Oryza sativa L.)
- protocol: Test Example 1: foliar treatment, growth inhibition rate on 14th day
- Format: in vivo
- recorded_conditions: active ingredient amount 31 g/ha, 14th day after application, visual, 0 = non-treated, 100 = complete kill
- Description: Upland field soil was put into a 1/300,000 hectare pot, and seeds of various plants were sown. […] On the 14th day after the application, the state of growth of the respective plants was visually observed, and the herbicidal effect was evaluated by a growth inhibition rate (%) of 0 (equivalent to the non-treated area) to 100 (complete kill).
Growth inhibition rate (%) Rice for assorted compounds
The response must be a number in % with no trailing unit.

Cc1ccc(Oc2cnc3cc(Cl)ccc3n2)cc1-c1c(OC(=O)COc2ccccc2)c(C)nn(C)c1=O | 0
Cc1ccc(Oc2cnc3cc(Cl)ccc3n2)cc1-c1c(OS(=O)(=O)C(F)(F)F)c(C)nn(C)c1=O | 30

Consider the compound shown here: "Cc1ccc(Oc2cnc3cc(Cl)ccc3n2)cc1-c1c(OC(=O)CC(C)(C)C)c(C)nn(C)c1=O" What is its recorded Growth inhibition rate (%) Rice?
40

Consider the compound shown here: "Cc1ccc(Oc2cnc3cc(Cl)ccc3n2)cc1-c1c(OC(=O)Cc2ccccc2)c(C)nn(C)c1=O" What is its recorded Growth inhibition rate (%) Rice?
30

* * *

- Test system: corn (Zea mays L.)
- protocol: Test Example 1: foliar treatment, growth inhibition rate on 14th day
- Format: in vivo
- recorded_conditions: active ingredient amount 31 g/ha, 14th day after application
measured_quantity: Growth inhibition rate (%) Corn
The response must be a number in % with no trailing unit.

CCc1nn(C)c(=O)c(-c2cc(Oc3ncc(C(F)(F)F)cc3Cl)ccc2C)c1OC(C)OC(=O)OC (centres unmarked) [1-139] | 50
CC(=O)Oc1c(C)nn(C)c(=O)c1-c1cc(Oc2ncc(Cl)cc2Cl)ccc1C [Compound 2-128] | 75
CCc1ccc(Oc2nc3ccccc3o2)cc1-c1c(O)c(C)nn(C)c1=O [Compound 2-166] | 80
CC(=O)Cn1ncc(O)c(-c2cc(Oc3ncc(C(F)(F)F)cc3Cl)ccc2C)c1=O [1-169] | 98

Consider the compound shown here: CC(=O)Oc1c(C)nn(C)c(=O)c1-c1cc(Oc2cnc3cc(Cl)ccc3n2)ccc1C [Compound 3-33] What is its recorded Growth inhibition rate (%) Corn?
10

Consider the compound shown here: CC(=O)Oc1c(C)nn(C)c(=O)c1-c1cc(Oc2ncc(Br)cc2Cl)ccc1C [Compound 2-135] What is its recorded Growth inhibition rate (%) Corn?
93

Consider the compound shown here: Cc1ccc(Oc2ncc3cc(Br)ccc3n2)cc1-c1c(O)c(C)nn(C)c1=O [Compound 2-90] What is its recorded Growth inhibition rate (%) Corn?
0

Consider the compound shown here: Cc1ccc(Oc2nc3cc(F)ccc3o2)cc1-c1c(O)cnn(C)c1=O [Compound 2-184] What is its recorded Growth inhibition rate (%) Corn?
40

These entries and their values trace back to patent US10870638B2.
